Taken from patent US10301272B2.

targetEntity: RORγ ligand binding domain (LBD) (Homo sapiens (Human))
Sequence (P51449 269-508): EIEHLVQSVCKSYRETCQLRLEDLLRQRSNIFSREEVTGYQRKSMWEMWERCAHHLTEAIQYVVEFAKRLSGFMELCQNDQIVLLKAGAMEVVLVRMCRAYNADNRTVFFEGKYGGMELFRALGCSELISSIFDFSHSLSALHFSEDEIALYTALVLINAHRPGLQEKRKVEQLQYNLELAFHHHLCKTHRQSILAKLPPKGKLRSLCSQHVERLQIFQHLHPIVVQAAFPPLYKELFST
testName: TR-FRET Activity Assay (ligand sensing assay, LANCE)
testContext: TR-FRET, interaction of RORγ-LBD with coactivator peptide
Below, each entry is listed alongside its reported pIC50 (FRET).
readoutLabel: pIC50 (FRET)

CNS(=O)(=O)c1ccc(-c2sc(C(=O)N3CC4(CCS(=O)(=O)CC4)C3)nc2CC2CCCCC2)c2ccccc12 6.3/6.6/6.6
CC(C)(C)NS(=O)(=O)c1ccc(-c2sc(C(=O)NCC3(O)CCOCC3)nc2CC2CCCCC2)cc1C(C)(C)O 6.7/7.7/7.7
CC(C)(CNC(=O)c1nc(CC2CCCCC2)c(-c2cc(C(C)(C)C)cc(C3(C)CC3)c2)o1)C(=O)O 5.9/6.6/6.6
CC(C)(C)NS(=O)(=O)c1ccc(-c2sc(S(N)(=O)=O)nc2CC2CCCCC2)cc1C(C)(C)C 6.3/6.6/6.6
CC(C)(C)NS(=O)(=O)c1ccc(-c2oc(C(=O)NC3CCS(=O)(=O)CC3)nc2CC2CCCCC2)c2ccccc12 6.4/8.5/8.4
CC(C)(C)c1cc(-c2nc(C(N)=O)ncc2CC2CCCCC2)cc(C(C)(C)C)c1 5.9/6.3/6.2
CC(C)(O)CNC(=O)c1nc(CC2CCCCC2)c(-c2ccc(S(=O)(=O)NC3(C)COC3)c3ccccc23)s1 6.4/8.5/8.7
